- Tested On: T1, BsaWI wt (UniProt Q6UQ65 1-272)
- T1 sequence: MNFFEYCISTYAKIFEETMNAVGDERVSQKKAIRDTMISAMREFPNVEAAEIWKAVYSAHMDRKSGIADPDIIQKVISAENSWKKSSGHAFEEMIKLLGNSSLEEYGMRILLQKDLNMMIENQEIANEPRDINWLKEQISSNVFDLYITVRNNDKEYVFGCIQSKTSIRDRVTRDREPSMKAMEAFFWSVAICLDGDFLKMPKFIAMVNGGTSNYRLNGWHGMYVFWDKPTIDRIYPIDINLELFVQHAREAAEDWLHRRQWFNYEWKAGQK
- Test Description: EMSA; 5 mM Ca2+; EMSA: 40 mM Tris-acetate pH 8.3, 0.1 mg/ml BSA, 10% glycerol, 5 mM CaCl2 or 0.1 mM EDTA, 1 nM DNA, room temperature, 15 min
- Run Parameters: protein: recombinant; chain copies: 4; label: 33P; blunt
Value Type: Kd (nM)
Could you give me the number in nM? Just the number is fine.

Challenge: Query (binder): SP (dsDNA) DNA 1: GCCTTTCGGTTTACCGGTGTCATTCCGCTG DNA 2: CAGCGGAATGACACCGGTAAACCGAAAGGC ; field requested: Kd
Response given: 2.9
